system: Mus musculus; assay: Anticonvulsant activity in NMRI mouse assessed as pentylenetetrazole-induced clonic seizure threshold at 10 mg/kg, ip administered 60 mins before pentylenetetrazole challenge; type: functional; settings: route intraperitoneal

# query_smiles, Activity [%]
rows = [
    ("S=c1[nH]nc(Cc2ccc(Cl)cc2Oc2ccccc2Cl)[nH]1", 138.87),
    ("Clc1ccc(Cc2nnc(SCc3ccccc3)[nH]2)c(Oc2ccccc2Cl)c1", 122.18),
    ("CSc1nnc(Cc2ccc(Cl)cc2Oc2ccccc2Cl)[nH]1", 131.61),
    ("Nc1nnc(Cc2ccccc2Oc2ccccc2)o1", 142.52),
    ("CCOc1nnc(Cc2ccccc2Oc2ccccc2)[nH]1", 125.79),
    ("Nc1nnc(Cc2ccc(Cl)cc2Oc2ccccc2F)o1", 128.95),
    ("CSc1nnc(Cc2ccccc2Oc2ccccc2)[nH]1", 132.83),
    ("CCOc1nnc(Cc2ccc(Cl)cc2Oc2ccccc2F)[nH]1", 115.67),
    ("Nc1nnc(Cc2ccc(Cl)cc2Oc2ccccc2Cl)o1", 132.44),
    ("CCSc1nnc(Cc2ccc(Cl)cc2Oc2ccccc2Cl)[nH]1", 139.99),
    ("CCOc1nnc(Cc2ccc(Cl)cc2Oc2ccccc2Cl)[nH]1", 122.29),
    ("CCSc1nnc(Cc2ccccc2Oc2ccccc2)[nH]1", 141.9),
]
